target: A*02:01 (human), P04439; conditions: chains peptide; modification not given
Test readout: pIC50
pIC50 (log units): -log10 of the concentration in mol/L.

Inquiry: Indicate its recorded pIC50; the binder in question is KQWFLDLPL […]
Reply text: 7.96
